Each record here notes measured viability, T/C.
test system: MDA-MB-231 multicell spheroids, viability; assay: Anticancer human tumor MDA-MB-231 cell line growth inhibition [PI3K]; settings: second compound 0.01 µM; first compound 10 µM; active compounds read low;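 note: spheroids exposed to agents for seven days before reading; percent of vehicle control luminescence with DMSO treated spheroids as 100%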
API: value field is a number in %; no unit string.

Some solved entries appear below for comparison.
Cn1nccc1Nc1nccc(-c2ccn(C(CO)c3ccc(Cl)c(F)c3)c(=O)c2)n1 (stereo not given) + COc1c(OCCCN2CCOCC2)ccc2c3n(c(=NC(=O)c4cnc(N)nc4)nc12)CCN3 : 23.5
CC(Cn1ccc(-c2ccc(C#N)c(Cl)c2)n1)NC(=O)c1cc(C(C)O)[nH]n1 (stereo not given) + CC(Nc1ccc2c(c1)OCCn1cc(N3C(=O)OCC3C(F)F)nc1-2)C(N)=O : 77
Cn1nccc1Nc1nccc(-c2ccn(C(CO)c3ccc(Cl)c(F)c3)c(=O)c2)n1 (stereo not given) + CC(Nc1ccc2c(c1)OCCn1cc(N3C(=O)OCC3C(F)F)nc1-2)C(N)=O : 23

Record Cn1ncc(Cl)c1-c1cc(C(=O)NC(CN)Cc2cccc(F)c2)sc1Cl (stereo not given) + CC(Nc1ccc2c(c1)OCCn1cc(N3C(=O)OCC3C(F)F)nc1-2)C(N)=O , field viability, T/C: 22.8

Recorded result, CC1(C)CCC(Nc2ncc(C(F)(F)F)c(-c3c[nH]c4c(P(C)(C)=O)c(C#N)ccc34)n2)CN1 (stereo not given) + COc1c(OCCCN2CCOCC2)ccc2c3n(c(=NC(=O)c4cnc(N)nc4)nc12)CCN3 , viability, T/C: 3.69
